experiment: Apparent volume of distribution in Sprague-Dawley rat at 1 mg/kg, iv measured after 2 to 720 mins by LC-tandem mass spectrometry analysis; format: ADME, organism-based; conditions: in vivo, read-out: Vz
Endpoint label: Vd (L/kg)
# value in L/kg; strip the unit string

Ask: // lookup Vd for O=C(CC(=O)Nc1ccc2c(/C=C/c3ccccn3)n[nH]c2c1)Nc1cccc(F)c1
Result: 49.3

----------
test: Tmax in Sprague-Dawley rat at 1 mg/kg, iv measured after 2 to 720 mins by LC-tandem mass spectrometry analysis; type: ADME, organism-based; conditions: in vivo
Endpoint label: Tmax (min)
# value in min; strip the unit string

Ask: // lookup Tmax for O=C(CC(=O)Nc1ccc2c(/C=C/c3ccccn3)n[nH]c2c1)Nc1cccc(F)c1
Result: 1.02

Provenance of the data: ChEMBL document CHEMBL4304743
